assay-text: Single dose oral pharmacokinetic study
Assay type: in vivo
study-conditions: mouse, mice, 30 mg/kg, plasma, read-out: Mice oral PK @30 mg/kg Cmax
readout-kind: Cmax (ng/mL)

>>> readout_number("C=C(C)[C@@H]1CC[C@]2(C(=O)N3CCC[C@H]3c3ncc(C(C)(C)C)o3)CC[C@]3(C)[C@H](CC[C@@H]4[C@@]5(C)CC[C@H](OC(=O)[C@H]6C[C@@H](C(=O)O)C6(C)C)C(C)(C)[C@@H]5CC[C@]43C)[C@@H]12")
7890
>>> readout_number("C=C(C)[C@@H]1CC[C@]2(C(=O)N3CCC[C@H]3c3ncc(-c4ccccn4)[nH]3)CC[C@]3(C)[C@H](CC[C@@H]4[C@@]5(C)CC[C@H](OC(=O)[C@H]6C[C@@H](C(=O)O)C6(C)C)C(C)(C)[C@@H]5CC[C@]43C)[C@@H]12")
6290
>>> readout_number("C=C(C)[C@@H]1CC[C@]2(C(=O)N3C4CCC3CC(n3c(C)nnc3C(C)C)C4)CC[C@]3(C)[C@H](CC[C@@H]4[C@@]5(C)CC[C@H](OC(=O)[C@H]6C[C@@H](C(=O)O)C6(C)C)C(C)(C)[C@@H]5CC[C@]43C)[C@@H]12 (some centres unmarked)")
7350
>>> readout_number("C=C(C)[C@@H]1CC[C@]2(C(=O)N3CCC[C@H]3c3nc(C(C)(C)C)c[nH]3)CC[C@]3(C)[C@H](CC[C@@H]4[C@@]5(C)CC[C@H](OC(=O)[C@H]6C[C@@H](C(=O)O)C6(C)C)C(C)(C)[C@@H]5CC[C@]43C)[C@@H]12")
16400
>>> readout_number("C=C(C)[C@@H]1CC[C@]2(C(=O)N3CCC[C@H]3c3nc4ccccc4[nH]3)CC[C@]3(C)[C@H](CC[C@@H]4[C@@]5(C)CC[C@H](OC(=O)[C@H]6C[C@@H](C(=O)O)C6(C)C)C(C)(C)[C@@H]5CC[C@]43C)[C@@H]12")
16800
>>> readout_number("C=C(C)[C@@H]1CC[C@]2(C(=O)N3C[C@H](OCCOC)C[C@H]3c3nc(-c4cccc(F)c4)c[nH]3)CC[C@]3(C)[C@H](CC[C@@H]4[C@@]5(C)CC[C@H](OC(=O)[C@H]6C[C@@H](C(=O)O)C6(C)C)C(C)(C)[C@@H]5CC[C@]43C)[C@@H]12")
41300
>>> readout_number("C=C(C)[C@@H]1CC[C@]2(C(=O)N3CCC[C@H]3c3ncc[nH]3)CC[C@]3(C)[C@H](CC[C@@H]4[C@@]5(C)CC[C@H](OC(=O)[C@H]6C[C@@H](C(=O)O)C6(C)C)C(C)(C)[C@@H]5CC[C@]43C)[C@@H]12")
10800
>>> readout_number("C=C(C)[C@@H]1CC[C@]2(C(=O)N3C[C@H](OCCOC)C[C@H]3c3nc(-c4ccc(F)cc4)c[nH]3)CC[C@]3(C)[C@H](CC[C@@H]4[C@@]5(C)CC[C@H](OC(=O)CC(C)(C)C(=O)O)C(C)(C)[C@@H]5CC[C@]43C)[C@@H]12")
11500
>>> readout_number("C=C(C)[C@@H]1CC[C@]2(C(=O)N3CCC[C@H]3c3ncc(-c4ccccc4)o3)CC[C@]3(C)[C@H](CC[C@@H]4[C@@]5(C)CC[C@H](OC(=O)[C@H]6C[C@@H](C(=O)O)C6(C)C)C(C)(C)[C@@H]5CC[C@]43C)[C@@H]12")
6510
>>> readout_number("CC1([C@@H]2CC[C@]3(C(=O)N4CCC[C@H]4c4ncc(-c5ccccn5)[nH]4)CC[C@]4(C)[C@H](CC[C@@H]5[C@@]6(C)CC[C@H](OC(=O)[C@H]7C[C@@H](C(=O)O)C7(C)C)C(C)(C)[C@@H]6CC[C@]54C)[C@@H]23)CC1")
4930
>>> readout_number("C=C(C)[C@@H]1CC[C@]2(C(=O)N3C[C@H](O)C[C@H]3c3nc(-c4ccccc4)c[nH]3)CC[C@]3(C)[C@H](CC[C@@H]4[C@@]5(C)CC[C@H](OC(=O)[C@H]6C[C@@H](C(=O)O)C6(C)C)C(C)(C)[C@@H]5CC[C@]43C)[C@@H]12")
4500
>>> readout_number("Cc1nnc(C(C)C)n1C1CC2CCC(C1)N2C(=O)[C@]12CC[C@@H](C3(C)CC3)[C@@H]1[C@H]1CC[C@@H]3[C@@]4(C)CC[C@H](OC(=O)CC(C)(C)C(=O)O)C(C)(C)[C@@H]4CC[C@@]3(C)[C@]1(C)CC2 (some centres unmarked)")
15800
>>> readout_number("CC(C)(CC(=O)O[C@H]1CC[C@]2(C)[C@H]3CC[C@@H]4[C@H]5[C@H](C6(C)CC6)CC[C@]5(C(=O)N5CCC[C@H]5c5ncc(-c6ccccn6)[nH]5)CC[C@@]4(C)[C@]3(C)CC[C@H]2C1(C)C)C(=O)O")
7120
>>> readout_number("COCCOc1ccc(-c2cnc([C@@H]3CCCN3C(=O)[C@]34CC[C@@H](C5(C)CC5)[C@@H]3[C@H]3CC[C@@H]5[C@@]6(C)CC[C@H](OC(=O)[C@H]7C[C@@H](C(=O)O)C7(C)C)C(C)(C)[C@@H]6CC[C@@]5(C)[C@]3(C)CC4)[nH]2)cc1")
9610
